test: gradient 5% acetonitrile 3 min, to 50% in 2 min, to 85% in 15 min, held 3 min, 100 µL/min; conditions: column: Zorbax Extend-C18 2.1 x 50 mm; eluents: water / acetonitrile, 0.1% formic acid
readout label: RP-LC retention time (s)
Express the result in s but write the number alone.

Could you tell me which RP-LC retention time is on file for Cc1ccc(NC(=O)CSc2nccc(N3CCN(c4cc(C)ccc4C)CC3)n2)cc1 ? 950

Also check COc1cc(OC)c(OC)cc1CN1CCC(C)(c2noc(C3CCOCC3)n2)CC1 642

Also check CCOC(=O)C(C)NC(=O)Nc1cc(F)c2nc(N3CCOCC3)ccc2c1 (configuration not stated) 812

Also check CCCn1c(=O)sc2cc(S(=O)(=O)N3CCC(C(=O)Nc4ccc(CC)cc4)CC3)ccc21 929

---

experiment: gradient 5% acetonitrile 3 min, to 50% in 2 min, to 85% in 15 min, held 3 min, 100 µL/min; settings: column: Zorbax Extend-C18 2.1 x 50 mm; eluents: water / acetonitrile, 0.1% formic acid
readout label: RP-LC retention time
// return the numeric value with its unit appended

• COc1ccccc1N1CCN(c2ncc3c(n2)CCN(Cc2cccc(F)c2)C3)CC1 = 808 s
• O=C(NCCN1CCOCC1)c1ccc(-c2ccc(N3CCSCC3)nc2)cc1 = 568 s
• O=C(CN1C(=O)C(C(=O)N2CCCC2)Sc2ccccc21)NCc1ccc(Cl)cc1 (configuration not stated) = 948 s

Could you tell me which RP-LC retention time is on file for COc1ccc(C2CC(=O)N(c3ccccc3)C(=O)C2)cc1OC ? 860 s

Also check COc1ccc(-c2nc(-c3cccc(-c4ccnn4C)c3)no2)cc1OC 1020 s

Also check Cc1c(C(=O)NC2CC2)cnn1-c1ccc(-c2nc(C3CC3)no2)cn1 825 s

Also check N#CC1(C(=O)NCCc2cccs2)CC1 708 s

---

test: gradient 5% acetonitrile 3 min, to 50% in 2 min, to 85% in 15 min, held 3 min, 100 µL/min; conditions: column: Zorbax Extend-C18 2.1 x 50 mm; eluents: water / acetonitrile, 0.1% formic acid
Listed next: entries and their corresponding RP-LC retention time.
Express the result in s but write the number alone.

Answered examples (3):
• Cc1cccc2c(=O)n(C3CCN(C(=O)Nc4ccccc4)CC3)cnc12 = 751
• CCn1ncc(CN(C)C(=O)C2CN(C(=O)c3ccccc3)CC23CCCCC3)c1C (centres undefined) = 774
• CCOc1cccc2cc(C(=O)N3CCOCC3)oc12 = 718

// switching to the query compound
Could you tell me which RP-LC retention time is on file for CCc1noc([C@@H]2CC(F)(F)CN2C(=O)c2ccoc2C)n1 ? 833

---

assay: gradient 5% acetonitrile 3 min, to 50% in 2 min, to 85% in 15 min, held 3 min, 100 µL/min; conditions: column: Zorbax Extend-C18 2.1 x 50 mm; eluents: water / acetonitrile, 0.1% formic acid
readout label: RP-LC retention time (s)
Express the result in s but write the number alone.

- Cc1ccc(N2CC(C(=O)NC(C)C)CC2=O)cc1 (stereo not drawn): 712

Could you tell me which RP-LC retention time is on file for O=C(NC1CCCC1)N1CCC(Oc2ccc(-c3noc(C4CC4)n3)cc2)C1 (stereo not drawn) ? 904

Also check O=C(c1ccco1)N1CCN(c2ccc(-c3nc(-c4cccc(F)c4)no3)cn2)CC1 893
